test system: NCI-H460; assay: Cytotoxicity against human NCI-H460 cells assessed as cell viability after 48 hrs by MTT assay; type: functional, cell-based; conditions: NCI-H460, 48 h
recorded.endpoint: IC50

# query: IC50 | item "COc1cc2nc(/C=C/c3ccc(Cl)cc3Cl)n(CCCN(C)C)c(=O)c2cc1OC" | system: NCI-H460
6.37 µM

# query: IC50 | item "CN(C)CCCn1c(/C=C/c2ccccc2Br)nc2ccccc2c1=O" | system: NCI-H460
6.54 µM

# query: IC50 | item "CCCCn1c(/C=C/c2ccc(Cl)cc2)nc2ccccc2c1=O" | system: NCI-H460
> 20 µM

# query: IC50 | item "CCCCn1c(/C=C/c2ccc3c(c2)OCO3)nc2ccccc2c1=O" | system: NCI-H460
> 20 µM

# query: IC50 | item "CN(C)CCCn1c(/C=C/c2ccc(Cl)cc2Cl)nc2ccccc2c1=O" | system: NCI-H460
5.86 µM

# query: IC50 | item "CCCCn1c(/C=C/c2ccc([N+](=O)[O-])cc2)nc2ccccc2c1=O" | system: NCI-H460
> 20 µM

# query: IC50 | item "CN(C)CCn1c(/C=C/c2cccc([N+](=O)[O-])c2)nc2ccccc2c1=O" | system: NCI-H460
> 20 µM

# query: IC50 | item "CCCCn1c(/C=C/c2ccc(Cl)cc2Cl)nc2ccccc2c1=O" | system: NCI-H460
> 20 µM

# query: IC50 | item "CN(C)CCn1c(/C=C/c2ccc3c(c2)OCO3)nc2ccccc2c1=O" | system: NCI-H460
> 20 µM

# query: IC50 | item "CN(C)CCCn1c(/C=C/c2ccc(F)cc2)nc2ccccc2c1=O" | system: NCI-H460
> 20 µM

# query: IC50 | item "CN(C)CCCn1c(/C=C/c2ccc(Cl)cc2)nc2ccccc2c1=O" | system: NCI-H460
> 20 µM

# query: IC50 | item "CN(C)CCCn1c(/C=C/c2cccc(O)c2)nc2ccccc2c1=O" | system: NCI-H460
> 20 µM

# query: IC50 | item "CN(C)CCn1c(/C=C/c2ccc(F)cc2)nc2ccccc2c1=O" | system: NCI-H460
> 20 µM

# query: IC50 | item "CN(C)CCCn1c(/C=C/c2ccc(Cl)cc2)nc2cc(Cl)ccc2c1=O" | system: NCI-H460
7.72 µM

# query: IC50 | item "CN(C)CCCn1c(/C=C/c2cccc([N+](=O)[O-])c2)nc2cc(Cl)ccc2c1=O" | system: NCI-H460
5.83 µM

# query: IC50 | item "CN(C)CCn1c(/C=C/c2ccc([N+](=O)[O-])cc2)nc2ccccc2c1=O" | system: NCI-H460
> 20 µM

# query: IC50 | item "CN(C)CCCn1c(/C=C/c2cccc(O)c2)nc2cc(Cl)ccc2c1=O" | system: NCI-H460
10.5 µM

# query: IC50 | item "COc1ccc(/C=C/c2nc3ccccc3c(=O)n2CCN(C)C)cc1OC" | system: NCI-H460
> 20 µM

# query: IC50 | item "CN(C)CCn1c(/C=C/c2cccc(O)c2)nc2ccccc2c1=O" | system: NCI-H460
> 20 µM

---

tested on: NCI-H460; experiment: Cytotoxicity against human NCI-H460 cells assessed as cell viability after 48 hrs by MTT assay; assay type: functional, cell-based; conditions: NCI-H460, 48 h
pIC50: −log10 of the molar value.
Would you kindly list pIC50 for each of these compounds?

What value of pIC50 has been recorded for this entry: "CN(C)CCn1c(/C=C/c2ccccc2Br)nc2ccccc2c1=O"
< 4.70

What value of pIC50 has been recorded for this entry: "CCCCn1c(/C=C/c2cccc(O)c2)nc2ccccc2c1=O"
< 4.70

What value of pIC50 has been recorded for this entry: "COc1cc2nc(/C=C/c3ccc(Cl)cc3)n(CCCN(C)C)c(=O)c2cc1OC"
5.15

What value of pIC50 has been recorded for this entry: "CCCCn1c(/C=C/c2ccccc2Br)nc2ccccc2c1=O"
< 4.70

What value of pIC50 has been recorded for this entry: "CCCCn1c(/C=C/c2cccc([N+](=O)[O-])c2)nc2ccccc2c1=O"
< 4.70

What value of pIC50 has been recorded for this entry: "CCCCn1c(/C=C/c2ccc(F)cc2)nc2ccccc2c1=O"
< 4.70

What value of pIC50 has been recorded for this entry: "CN(C)CCCn1c(/C=C/c2ccc(F)cc2)nc2cc(Cl)ccc2c1=O"
< 4.70

What value of pIC50 has been recorded for this entry: "CN(C)CCCn1c(/C=C/c2ccc(Cl)cc2Cl)nc2cc(Cl)ccc2c1=O"
4.88

What value of pIC50 has been recorded for this entry: "CN(C)CCn1c(/C=C/c2ccc(Cl)cc2)nc2ccccc2c1=O"
< 4.70

What value of pIC50 has been recorded for this entry: "CN(C)CCCn1c(/C=C/c2ccc3c(c2)OCO3)nc2cc(Cl)ccc2c1=O"
< 4.70

What value of pIC50 has been recorded for this entry: "CCCCn1c(/C=C/c2ccc(OC)c(OC)c2)nc2ccccc2c1=O"
< 4.70
